Overview of recorded Primary Neutralization Index (B cell culture supernatant) for various binders
systemUnderTest: HIV-1 Env of pseudovirus JRCSF (HIV-1) (UniProt P20871)
protocolNotes: cell-based or functional assay
readout: Primary Neutralization Index (B cell culture supernatant)

1. PGT-123 (B cell culture well 4858_P8) (antibody, V domains shown) VH: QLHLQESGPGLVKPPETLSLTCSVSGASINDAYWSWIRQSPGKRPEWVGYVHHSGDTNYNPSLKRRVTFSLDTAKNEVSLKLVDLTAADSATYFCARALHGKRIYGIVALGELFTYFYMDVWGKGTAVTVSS VL: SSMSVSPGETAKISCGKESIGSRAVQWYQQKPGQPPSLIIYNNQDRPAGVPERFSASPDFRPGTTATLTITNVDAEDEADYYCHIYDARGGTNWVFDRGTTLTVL; 1.6
2. Antibody of B cell culture well 4869_K15 (antibody, V domains shown) VH: QVHLQESGPGLVTPSETLSLTCTVSNGSVSGRFWSWIRQSPGRGLEWIGYFSDTDRSEYNPSLRSRLTLSVDRSKNQLSLRLKSVTAADSATYYCARAQQGKRIYGIVSFGEFFYYYYMDAWGKGTPVTVSS VL: SLNPLSLAPGATAKIPCGERSRGSRAVQWYQQKPGQAPTLIIYNNQDRPAGVSERFSGNPDVAIGVTATLTISRVEVGDEADYYCHYWDSRSPISWIFGGGTQLTVL; 2.1
3. PGT-137 (B cell culture well 5345_I1) (antibody, V domains shown) VH: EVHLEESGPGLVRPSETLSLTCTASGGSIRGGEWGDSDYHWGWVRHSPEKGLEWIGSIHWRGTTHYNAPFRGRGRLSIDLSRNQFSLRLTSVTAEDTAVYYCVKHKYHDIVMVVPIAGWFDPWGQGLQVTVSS VL: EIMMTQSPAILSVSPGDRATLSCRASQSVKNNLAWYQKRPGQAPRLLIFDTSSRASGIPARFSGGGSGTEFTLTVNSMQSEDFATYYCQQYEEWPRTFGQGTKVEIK; 1.1
